For reference, the following IC50 results for Nitric oxide synthase 1 (Rattus norvegicus, UniProt P29476) were taken from various sources.
Give bare numbers, in µM.

| compound-string | unit-abbreviation | measured |
| --- | --- | --- |
| Clc1cccc2[nH]ncc12 | µM | 44.3 |

Each of the following entries comes with a recorded value; kindly state IC50 for each.
1. CC(=N)NCc1ccc2c(c1)OCO2
2. CCn1ncc2c(Br)cccc21
3. Brc1cccc2cn[nH]c12
4. N=C(Nc1ccc2nc(NCCc3ccc(Br)cc3)sc2c1)c1cccs1

a:
1. 400
2. 72.5
3. 14.3
4. 4.7

For every record below, what is its IC50?
1. N#Cc1cccc2[nH]ncc12
2. CC(=N)N[C@@H](C)c1ccccc1
3. N=C(N)NCCCCNC(=O)[C@@]1(O)[C@H](c2c[nH]c3cc(Br)ccc23)[C@@](O)(Cc2c[nH]c3cc(Br)ccc23)C(=O)N1CCCCNC(=N)N
4. Cn1ncc2c([N+](=O)[O-])cccc21
5. Brc1ccc2[nH]ncc2c1
6. CC(=N)NCc1ccccc1

a:
1. 42.5
2. 150
3. 4.3
4. 10.6
5. 72
6. 150
